Provide the reported viability, T/C of each item.
# Test system: SW 982 tumor spheroid viability
# protocol.summary: Anticancer human tumor SW 982 cell line growth inhibition;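 also: spheroids exposed to compound for 7 days before readout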
# condition.summary: second compound 0.000949 µM; first compound 10 µM; active compounds read low; spheroids with HUVEC and MSC
Numeric only. Scale: %

Exercise: Specify viability, T/C for CC1COCCN1c1cc(-c2ccnn2C)c2ccnc(-c3ccn[nH]3)c2n1 (stereo unspecified) + COc1cc2c(cc1O)CCNC21CSC2c3c(OC(C)=O)c(C)c4c(c3C(COC1=O)N1C(O)C3Cc5cc(C)c(OC)c(O)c5C(C21)N3C)OCO4 and stop.
Key: 1.4

Exercise: Specify viability, T/C for [2H]c1nc(C)nc([2H])c1-c1cc(NC[C@@H](C)c2cccc3c(C(=O)NC)ccnc23)ncn1 + COc1cc2c(cc1O)CCNC21CSC2c3c(OC(C)=O)c(C)c4c(c3C(COC1=O)N1C(O)C3Cc5cc(C)c(OC)c(O)c5C(C21)N3C)OCO4 and stop.
Key: 21.9

Exercise: Specify viability, T/C for CC(C)n1c(=O)n(C)c2cnc3cc(F)c(-c4ccc(OCCCN5CCCCC5)nc4)cc3c21 + COc1cc2c(cc1O)CCNC21CSC2c3c(OC(C)=O)c(C)c4c(c3C(COC1=O)N1C(O)C3Cc5cc(C)c(OC)c(O)c5C(C21)N3C)OCO4 and stop.
Key: 21.6

Exercise: Specify viability, T/C for Cc1cc(C)c(CNC(=O)c2cc(-c3ccc(CN4CCOCC4)cc3)cc3c2cnn3C2CCCC2)c(=O)[nH]1 + COc1cc2c(cc1O)CCNC21CSC2c3c(OC(C)=O)c(C)c4c(c3C(COC1=O)N1C(O)C3Cc5cc(C)c(OC)c(O)c5C(C21)N3C)OCO4 and stop.
Key: 17.8

Exercise: Specify viability, T/C for COc1cc(C)[nH]c(=O)c1CN1CCc2c(Cl)cc(C(OC)C3COC3)c(Cl)c2C1=O (stereo unspecified) + COc1cc2c(cc1O)CCNC21CSC2c3c(OC(C)=O)c(C)c4c(c3C(COC1=O)N1C(O)C3Cc5cc(C)c(OC)c(O)c5C(C21)N3C)OCO4 and stop.
Key: 28.3

Exercise: Specify viability, T/C for COc1ccc([C@@H](O)c2cc(-c3ncnc4cc(N5CCOCC5)ccc34)c(F)cc2Cl)nn1 + COc1cc2c(cc1O)CCNC21CSC2c3c(OC(C)=O)c(C)c4c(c3C(COC1=O)N1C(O)C3Cc5cc(C)c(OC)c(O)c5C(C21)N3C)OCO4 and stop.
Key: 0.73
